Target: T1, human IL-36R on cells (human, UniProt Q9HB29 20-575)
T1 sequence (looked up): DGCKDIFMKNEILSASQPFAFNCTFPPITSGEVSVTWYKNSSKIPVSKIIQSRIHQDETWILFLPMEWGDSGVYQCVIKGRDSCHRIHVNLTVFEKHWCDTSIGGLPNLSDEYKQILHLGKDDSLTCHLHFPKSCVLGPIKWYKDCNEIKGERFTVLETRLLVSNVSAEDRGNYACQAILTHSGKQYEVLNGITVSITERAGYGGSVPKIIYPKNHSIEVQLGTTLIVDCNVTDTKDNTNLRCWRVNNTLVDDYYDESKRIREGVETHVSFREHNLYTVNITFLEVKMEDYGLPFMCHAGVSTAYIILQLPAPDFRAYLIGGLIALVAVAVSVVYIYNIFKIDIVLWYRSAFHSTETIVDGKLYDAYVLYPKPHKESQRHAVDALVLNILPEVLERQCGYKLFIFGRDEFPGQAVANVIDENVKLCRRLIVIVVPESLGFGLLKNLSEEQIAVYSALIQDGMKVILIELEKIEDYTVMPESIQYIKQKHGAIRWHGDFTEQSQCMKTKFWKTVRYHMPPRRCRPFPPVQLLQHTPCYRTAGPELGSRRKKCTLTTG
Assay: cell-based or functional assay
measured quantity: IC90, pNFκB, NCI/ADR-RES cells, trun-IL-36g (nM)
Answers are plain numbers, in nM.

antibody 81B4 (antibody, V domains shown, Mouse monoclonal from hybridoma; also called 81B4E11; Mouse 81B4) VH: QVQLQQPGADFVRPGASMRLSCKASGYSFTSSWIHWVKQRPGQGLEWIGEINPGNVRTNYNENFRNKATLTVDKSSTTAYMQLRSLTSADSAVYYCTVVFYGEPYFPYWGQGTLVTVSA VL: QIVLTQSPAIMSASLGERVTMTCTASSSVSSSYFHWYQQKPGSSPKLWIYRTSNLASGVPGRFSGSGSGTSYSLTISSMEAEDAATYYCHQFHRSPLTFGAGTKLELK    1.2

Please examine the following record next.
// query Consider the binder shown here: antibody 172C8 (antibody, V domains shown, Mouse monoclonal from hybridoma; also called 172C8B12) VH: EVQLQQSGPELVKPGASVKLSCKASGYTFTDNYMNWVRQSHGKSLEWIGRVNPSNGDTKYNQNFKGKATLTVDKSLSTAYMQLNGLTSEDSAVYYCGRTKNFYSSYSYDDAMDYWGQGTSVTVSS VL: DIQMTQSPASQSASLGESVTFTCLASQTIGTWLAWYQQRPGKSPQLLIYAATSLADGVPSRFSGSGSGTQFSFNIRSLQAEDFASYYCQQVYTTPLTFGGGTKLEIK What is its recorded IC90, pNFκB, NCI/ADR-RES cells, trun-IL-36g?
// result 3.8
